Target system: T1, Chryseobacterium sp-62563 deamidase polypeptide (second polypeptide, deamidase domain), wildtype (Chryseobacterium sp-62563)
T1 sequence: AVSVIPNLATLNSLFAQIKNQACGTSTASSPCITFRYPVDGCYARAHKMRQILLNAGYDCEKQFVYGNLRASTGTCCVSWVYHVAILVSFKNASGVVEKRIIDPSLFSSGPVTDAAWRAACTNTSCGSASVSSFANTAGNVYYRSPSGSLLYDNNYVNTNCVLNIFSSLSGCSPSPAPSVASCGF
Procedure details: cell-based or functional assay
Assay readout: Relative activity of maturated deamidase (% initial rate)
Could you keep your reply to the number by itself?

# lookup: Relative activity of maturated deamidase (% initial rate) of Chryseobacterium sp-62563 propeptide F95G (protein) NQDPNLVAKESNETAMKDFGKTVPVGIEKEDGKFKISFMVTAQPYEIKDSKENAAYISMIKTAVENETPIHVFLKANTNEIAKVDKATDDDIRYGKSVFTKEVKEENRK
91

src = patent US20250215412A1
